Data credit: ChEMBL document CHEMBL5058646

system name: Mu-type opioid receptor (Homo sapiens, UniProt P35372)
Sequence (P35372 whole entry): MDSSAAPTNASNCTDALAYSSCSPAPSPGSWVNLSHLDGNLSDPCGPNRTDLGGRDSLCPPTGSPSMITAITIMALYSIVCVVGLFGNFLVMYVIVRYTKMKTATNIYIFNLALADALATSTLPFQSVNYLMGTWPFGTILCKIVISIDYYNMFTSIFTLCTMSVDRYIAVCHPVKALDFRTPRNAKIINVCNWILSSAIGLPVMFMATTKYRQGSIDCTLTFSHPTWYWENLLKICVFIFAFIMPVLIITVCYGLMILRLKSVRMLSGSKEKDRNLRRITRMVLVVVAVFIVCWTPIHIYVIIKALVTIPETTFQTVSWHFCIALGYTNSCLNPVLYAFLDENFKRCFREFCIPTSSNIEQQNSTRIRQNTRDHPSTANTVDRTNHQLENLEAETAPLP
protocol text: GPCRScan assay: inhibition of MOR
Design: radioligand conc. used [nm] 1.0 – 2.0, parental cells stable HEK
study conditions: read-out: Ki
endpoint name: Ki (nM)
Answer format: numeric, nM implied, no suffix.

Ask: # input molecule: C[C@@H]1CN(c2ncc(Cl)c(Nc3ccc4c(c3)n(CCC(C)(C)O)c(=O)n4C)n2)C[C@H](C)C1(F)F ; wanted: its Ki
Reply: 872

* * *

system name: Beta-3 adrenergic receptor (Homo sapiens)
Sequence (P13945 whole entry): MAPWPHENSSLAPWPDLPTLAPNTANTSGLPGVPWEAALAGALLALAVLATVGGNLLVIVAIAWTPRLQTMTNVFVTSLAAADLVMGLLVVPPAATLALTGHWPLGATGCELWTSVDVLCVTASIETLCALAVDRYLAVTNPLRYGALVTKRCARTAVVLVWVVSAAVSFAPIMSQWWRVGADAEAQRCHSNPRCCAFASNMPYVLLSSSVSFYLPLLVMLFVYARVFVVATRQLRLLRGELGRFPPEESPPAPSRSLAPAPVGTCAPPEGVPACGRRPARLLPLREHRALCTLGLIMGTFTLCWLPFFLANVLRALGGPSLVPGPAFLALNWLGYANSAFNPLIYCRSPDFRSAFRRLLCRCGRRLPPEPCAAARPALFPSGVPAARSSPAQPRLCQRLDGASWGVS
protocol text: GPCRScan assay: inhibition of Beta3
Set-up: radioligand conc. used [nm] 0.2 – 0.5, parental cells HEK Flp-In
study conditions: read-out: Ki
endpoint name: pKi
In simple prose, pKi is minus the logarithm base ten of a concentration in moles per litre.

Ask: Entry C[C@@H]1CN(c2ncc(Cl)c(Nc3ccc4c(c3)n(CCC(C)(C)O)c(=O)n4C)n2)C[C@H](C)C1(F)F : reported pKi = ?
Reply: 5.40

* * *

system name: Sodium-dependent dopamine transporter (Homo sapiens, UniProt Q01959)
Sequence (Q01959 whole entry): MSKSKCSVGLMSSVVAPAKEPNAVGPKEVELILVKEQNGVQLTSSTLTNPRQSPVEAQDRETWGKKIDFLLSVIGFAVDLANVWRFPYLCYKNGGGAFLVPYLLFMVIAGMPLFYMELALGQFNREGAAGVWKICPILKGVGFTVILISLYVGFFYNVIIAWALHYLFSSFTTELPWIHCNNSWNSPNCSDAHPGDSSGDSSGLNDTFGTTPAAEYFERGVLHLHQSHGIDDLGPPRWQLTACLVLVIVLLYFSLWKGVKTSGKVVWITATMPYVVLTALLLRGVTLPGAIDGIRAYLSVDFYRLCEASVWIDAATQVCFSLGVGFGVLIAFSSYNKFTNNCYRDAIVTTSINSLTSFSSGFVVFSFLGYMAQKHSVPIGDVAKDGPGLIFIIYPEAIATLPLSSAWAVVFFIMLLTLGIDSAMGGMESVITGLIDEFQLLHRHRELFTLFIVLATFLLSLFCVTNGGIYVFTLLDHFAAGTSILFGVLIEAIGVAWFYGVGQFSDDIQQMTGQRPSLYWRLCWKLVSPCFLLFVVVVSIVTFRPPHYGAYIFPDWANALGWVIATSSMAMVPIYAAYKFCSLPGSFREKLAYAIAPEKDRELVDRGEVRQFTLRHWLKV
protocol text: GPCRScan assay: inhibition of DAT
Parameters: radioligand conc. used [nm] 3.6 – 16.0, parental cells stable HEK
study conditions: read-out: Ki
endpoint name: pKi
// pKi: -log10(molar conc.)

Ask: Which pKi value belongs to C[C@@H]1CN(c2ncc(Cl)c(Nc3ccc4c(c3)n(CCC(C)(C)O)c(=O)n4C)n2)C[C@H](C)C1(F)F ?
Reply: 5.29

* * *

system name: Sigma intracellular receptor 2 (Homo sapiens)
Sequence (Q5BJF2 whole entry): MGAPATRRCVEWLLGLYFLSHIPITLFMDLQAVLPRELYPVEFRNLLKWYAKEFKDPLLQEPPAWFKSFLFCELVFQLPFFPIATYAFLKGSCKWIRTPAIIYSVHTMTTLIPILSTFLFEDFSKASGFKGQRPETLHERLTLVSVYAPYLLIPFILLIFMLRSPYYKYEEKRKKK
protocol text: GPCRScan assay: inhibition of Sigma 2
endpoint name: Ki (µM)
Respond with the bare value in µM.

Ask: Entry C[C@@H]1CN(c2ncc(Cl)c(Nc3ccc4c(c3)n(CCC(C)(C)O)c(=O)n4C)n2)C[C@H](C)C1(F)F has what Ki?
Reply: 2.5

* * *

system name: 5-hydroxytryptamine receptor 1D (Homo sapiens, UniProt P28221)
Sequence (P28221 whole entry): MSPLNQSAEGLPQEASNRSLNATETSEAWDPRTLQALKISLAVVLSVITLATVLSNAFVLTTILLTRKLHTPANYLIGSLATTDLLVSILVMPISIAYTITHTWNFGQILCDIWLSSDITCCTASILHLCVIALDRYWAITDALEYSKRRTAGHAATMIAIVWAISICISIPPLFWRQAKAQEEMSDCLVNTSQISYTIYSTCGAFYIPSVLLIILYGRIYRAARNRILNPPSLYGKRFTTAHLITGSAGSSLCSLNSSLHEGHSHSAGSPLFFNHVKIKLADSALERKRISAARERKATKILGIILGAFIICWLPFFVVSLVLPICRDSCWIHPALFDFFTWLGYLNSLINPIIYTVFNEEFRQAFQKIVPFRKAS
endpoint name: pKi
Note on units: pKi is unitless, being -log10 of a concentration expressed in mol/L.

Ask: I have this molecule here, C[C@@H]1CN(c2ncc(Cl)c(Nc3ccc4c(c3)n(CCC(C)(C)O)c(=O)n4C)n2)C[C@H](C)C1(F)F , and I need its recorded pKi.
Reply: 5.21

* * *

system name: Histamine H3 receptor (Homo sapiens, UniProt Q9Y5N1)
Sequence (Q9Y5N1 whole entry): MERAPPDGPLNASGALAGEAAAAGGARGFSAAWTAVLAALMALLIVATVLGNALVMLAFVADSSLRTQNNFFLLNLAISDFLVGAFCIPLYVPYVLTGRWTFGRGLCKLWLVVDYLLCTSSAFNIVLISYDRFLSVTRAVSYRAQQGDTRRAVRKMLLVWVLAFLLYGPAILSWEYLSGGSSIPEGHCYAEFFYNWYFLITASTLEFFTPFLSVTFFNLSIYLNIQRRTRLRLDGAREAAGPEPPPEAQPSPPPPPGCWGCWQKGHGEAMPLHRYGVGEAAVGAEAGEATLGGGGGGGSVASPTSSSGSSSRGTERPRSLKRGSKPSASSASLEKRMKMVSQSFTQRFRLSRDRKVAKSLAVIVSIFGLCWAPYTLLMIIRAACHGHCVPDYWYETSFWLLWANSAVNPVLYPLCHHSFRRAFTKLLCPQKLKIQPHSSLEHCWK
protocol text: GPCRScan assay: inhibition of H3
Design: radioligand conc. used [nm] 0.5 – 1.0, parental cells HEK Flp-In
study conditions: read-out: Ki
endpoint name: Ki (µM)
Respond with the bare value in µM.

Ask: Data request, read-out Ki, for C[C@@H]1CN(c2ncc(Cl)c(Nc3ccc4c(c3)n(CCC(C)(C)O)c(=O)n4C)n2)C[C@H](C)C1(F)F
Reply: 2.33
